Tested on: Schistosoma mansoni adult worms (49-day-old)
Assay: Effect on adult schistosomes (49-day-old) in infected mice
Format: in vivo
Settings: single 200 mg/kg per os, 49-day-old adults; total worm reduction rate
Experimental: Mice were infected with 100 Schistosoma mansoni cercariae on day 49 post-treatment. Each group was treated per os with OZ compounds at single doses of 200, 400, and 600 mg/kg. Untreated mice served as the control. All groups were killed 4 weeks after treatment and the liver and intestine were removed and separated. The liver and intestine were compressed and alive male and female worms could be seen and counted.
Assign class by % reduction of adult worms growth at day 49 after per os application of 200 mg/kg, TWR (%): not lower than 30% means Met; lower than 30% means Not met.

>>> classassignment("O=C1CCC2(CC1)OOC1(O2)C2CC3CC(C2)CC1C3 (centres unmarked)")
"Met"
>>> classassignment("O=C(O)CC1CCC2(CC1)OOC1(O2)C2CC3CC(C2)CC1C3 (centres unmarked)")
"Not met"
>>> classassignment("NC[C@H]1CC[C@]2(CC1)OOC1(O2)C2CC3CC(C2)CC1C3 (some centres unmarked)")
"Met"
>>> classassignment("C1CC2(CCN1)OOC1(O2)C2CC3CC(C2)CC1C3.Cl (centres unmarked)")
"Not met"
>>> classassignment("Cc1ccc(S(=O)(=O)O)cc1.NC[C@H]1CC[C@]2(CC1)OOC1(O2)C2CC3CC(C2)CC1C3 (some centres unmarked)")
"Met"
